Molecular target: R146A Bcl-2 (human, UniProt P10415 1-207, R146A)
Sequence (P10415 1-207 R146A): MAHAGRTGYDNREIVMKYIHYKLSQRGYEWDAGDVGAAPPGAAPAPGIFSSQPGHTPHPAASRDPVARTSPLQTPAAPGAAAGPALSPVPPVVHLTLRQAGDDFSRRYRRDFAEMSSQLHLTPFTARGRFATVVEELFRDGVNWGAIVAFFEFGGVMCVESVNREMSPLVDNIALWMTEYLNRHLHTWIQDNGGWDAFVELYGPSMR
Experiment: fluorescence polarisation
Ends that are not written are not given here. * marks the point of attachment. FITC = O=C1OC2(c3ccc(O)cc3Oc3cc(O)ccc32)c2ccc(NC(=S)*)cc21
reported.metric: pKd
Answer as the number alone; pKd is minus log10 of concentration in mol/L.

Q) Recorded pKd for {FITC}-HQAEVQIARKLQCIADQFHRLHVQQ [FITC-Bmf BH3] , please?
A) 6.21
